- System: PfAP2-HC AP2 domain (GST-tagged)
- PROTOCOL SUMMARY: gcPBM binding intensity (ln(normalized median fluorescence intensity)); higher = stronger DNA binding
Over roughly 25,000 sequences, “ln(normalized median fluorescence intensity)” has its median near 9.7; the highest 2% begin near 11. Shown is part of a subset that was picked to be rich in the highest values.
ENDPOINT: gcPBM binding intensity (ln)
Answer as a number with no unit attached.

Input line: # gcPBM binding intensity (ln) lookup, item TAAAATAAAACAAACACACACACACCCCCACAAAAA [CACACA_site3850]
Output line: 10.8

Input line: Would you mind doing AAAATAATTTTATAGTTGCACTATATCGTATACAAT as well?
Output line: 9.71

Input line: Would you mind doing AATATTTTTTTATAAACACACATATATATAAATATA [CACACA_site3524] as well?
Output line: 9.53

Input line: Would you mind doing GTAAAAAAAGAGCACACACACAAAAACACCCACAAA [CACACA_site1292] as well?
Output line: 10.9

Input line: Would you mind doing AAACCAAGGCACAATAATTAAATAAATAAAATCATG [GTGCAC_negctrl_site574] as well?
Output line: 9.58

Input line: Would you mind doing AATTAAACTCACACCACACACAAAAAAAAAAAAAAA [CACACA_site693] as well?
Output line: 10.3

Input line: Would you mind doing TATATATATATATATTGTACATAATGTATATATGTT [XGTACX_site3448] as well?
Output line: 9.74

Input line: Would you mind doing CACAAACAAAAACACACACACACACCCACAAAAATG [CACACA_site2429] as well?
Output line: 11

Input line: Would you mind doing AGCACACCCACAAAAACACACACAAAGGTGTTCTTA [CACACA_site8355] as well?
Output line: 10.5

Input line: Would you mind doing GAAAAGTATAAAAAACGTACAAGTTTTATTTTCACA [XGTACX_site4604] as well?
Output line: 9.58

---

- Test system: PfAP2-HC AP2 domain (GST-tagged)
- PROTOCOL SUMMARY: gcPBM binding intensity (ln(normalized median fluorescence intensity)); higher = stronger DNA binding
In all, about 25,000 sequences were measured (“ln(normalized median fluorescence intensity)”: median about 9.7, highest 2% from about 11 on). What follows is part of a selection rich in the highest values, with near analogues and random picks from the rest.
Assign gcPBM binding intensity (ln) to each entry below.
Answer as a number with no unit attached.

Input line: # gcPBM binding intensity (ln) lookup, item TATACACATAGACACACACACATACACGCACATACA [CACACA_site6908]
Output line: 10.7

Input line: Would you mind doing GAAAATAAAAAATATGAACACACATATATAACAAAA [CACACA_site7975] as well?
Output line: 10.5

Input line: Would you mind doing CACAAAGACACAAACACACACACACCCACATACATA [CACACA_site452] as well?
Output line: 10.5

Input line: Would you mind doing ACATCAAGCAGACACACACACACACCCACCCACCGA [CACACA_site371] as well?
Output line: 10.7

Input line: Would you mind doing TGTTAATTATAAATTTGTACTTATTTTTACAAAATA [XGTACX_site6598] as well?
Output line: 9.48

Input line: Would you mind doing AAATTTGGCAGACACACACACACACGCACACGCACA [CACACA_site6423] as well?
Output line: 11.5

Input line: Would you mind doing AAAAAAAAAAAAAACACACACACACGCATACACATA [CACACA_site7364] as well?
Output line: 10.7

Input line: Would you mind doing AAATTTGGCAAACACACACACACACCCACACCCACA [CACACA_site8095] as well?
Output line: 11.4

Input line: Would you mind doing CACATACACATACACATACACACGCATAGAAACATA [CACACA_site2136] as well?
Output line: 10.5

Input line: Would you mind doing CGCACACGCAGACACACACACACATATAAATAAATA [CACACA_site7101] as well?
Output line: 10.8

Input line: Would you mind doing AAAAATTTGGCATACACACACACACCCACACCCACA [CACACA_site587] as well?
Output line: 10.4

Input line: Would you mind doing AAGTATTACAACCACACACACACCTATATATCATAG [CACACA_site7878] as well?
Output line: 11

Input line: Would you mind doing ATTATAACCATATACACACCCATATAAATAAATATA [CACACA_site6926] as well?
Output line: 10.5

Input line: Would you mind doing CATAGATACATACACGCACACACATATATATATATA [CACACA_site13] as well?
Output line: 10.3

Input line: Would you mind doing AAAAAAAAAAAAAACACACACACACGCAAATACATA [CACACA_site6474] as well?
Output line: 11.4

Input line: Would you mind doing ATTTGGCAGAAACACACACACACACCCACCCACATA [CACACA_site589] as well?
Output line: 10.5

Input line: Would you mind doing TAAAGTATTACAACCACACACACACCCATATATTAT [CACACA_site4159] as well?
Output line: 11.1

Input line: Would you mind doing TATTATATCTTATATGTATATTCCCACAAATTATAT [GTGCAC_negctrl_site362] as well?
Output line: 9.59

Input line: Would you mind doing AACAGACAGAAACACACACACATATATATATATATA [CACACA_site3394] as well?
Output line: 10.8
